# Assay Procedure: amyloid nucleation score (Sup35N fusion, yeast selection) (log enrichment); library NNK1; higher = more nucleation; inactive = no reads after selection;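 also: zero at mode of non-aggregating sequences after 7 days selection at 30°C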
Experimental Readout: amyloid nucleation score
Returns: the value as a bare number; no unit string appended.

[
  {
    "Substance": "CYPPEVF",
    "amyloid nucleation score": 1.31
  },
  {
    "Substance": "PIYGFCSIALGSMLIIPRLL",
    "amyloid nucleation score": -1.05
  },
  {
    "Substance": "KPLCLNYKCLYIILVCVGDP",
    "amyloid nucleation score": 0.151
  }
]

Look at this substance and give its reported amyloid nucleation score. `AFTGQCEEKIS`
-0.226

Look at this substance and give its reported amyloid nucleation score. `DWNEEACV`
0.432

Look at this substance and give its reported amyloid nucleation score. `RKCEDGFWGKRDSATKGP`
0.034

* * *

Catalogue of amyloid nucleation score readings, one per entry.
# Assay Procedure: amyloid nucleation score (Sup35N fusion, yeast selection) (log enrichment); library NNK1; higher = more nucleation; inactive = no reads after selection
Returns: the value as a bare number; no unit string appended.

Look at this sequence and give its reported amyloid nucleation score. `VSMFRRVASEALYRQPSMLA`
0.972

* * *

Catalogue of amyloid nucleation score readings, one per entry.
# Assay Procedure: amyloid nucleation score (Sup35N fusion, yeast selection) (log enrichment); library NNK1; higher = more nucleation; inactive = no reads after selection
Returns: the value as a bare number; no unit string appended.

[
  {
    "Substance": "NFPVVW",
    "amyloid nucleation score": 0.286
  }
]

Look at this substance and give its reported amyloid nucleation score. `FTLCQASYMN`
-0.655

Look at this substance and give its reported amyloid nucleation score. `HSYCLLLWYG`
-1.74

Look at this substance and give its reported amyloid nucleation score. `VSVNRVFFVSWAISKTIS`
-0.689

Look at this substance and give its reported amyloid nucleation score. `LCDDHRPELCVYIVWTVVGE`
3.19

Look at this substance and give its reported amyloid nucleation score. `EDPVLSREGCKQVNPWILWG`
0.201

Look at this substance and give its reported amyloid nucleation score. `IWTKSCDCVCSCGGYQGCYR`
-0.038

Look at this substance and give its reported amyloid nucleation score. `GGRLEKRTCASCTSGQVVGV`
0.294

Look at this substance and give its reported amyloid nucleation score. `LQKIMQKISPIFRNRIYVRR`
-0.327

Look at this substance and give its reported amyloid nucleation score. `LCPGNMLLLITDQYSNWEEI`
0.068

Look at this substance and give its reported amyloid nucleation score. `VSYTVSFSFFLFLFNWHSYV`
0.147

Look at this substance and give its reported amyloid nucleation score. `PSSGLFASLIVMSTVRTDLI`
-0.307

Look at this substance and give its reported amyloid nucleation score. `SLTDAEGSWLHRSWVKWNRC`
-0.208

Look at this substance and give its reported amyloid nucleation score. `DCQVAVPLRIVKANSVILCG`
0.26

Look at this substance and give its reported amyloid nucleation score. `GVYARQIFYNS`
0.021

Look at this substance and give its reported amyloid nucleation score. `MVVYFNLPAVMLIDCMMSAI`
0.708

Look at this substance and give its reported amyloid nucleation score. `EKSCATRLA`
0.374

Look at this substance and give its reported amyloid nucleation score. `SRDVVSAGYKKCGYGMYCTK`
1.11

Look at this substance and give its reported amyloid nucleation score. `DMDTQEFLYCSSVKFGSTKD`
5.41

Look at this substance and give its reported amyloid nucleation score. `HWTYWIRI`
-0.084

Look at this substance and give its reported amyloid nucleation score. `QCYIGVKYHSALVWDHTPEA`
2.29

Look at this substance and give its reported amyloid nucleation score. `LRALSYWIPARTPIVEGYAK`
-0.333

Look at this substance and give its reported amyloid nucleation score. `FHYWFIIKVPTWMVYRDLTA`
-0.203

Look at this substance and give its reported amyloid nucleation score. `HLEGFYLGIWHGRSRVFSRN`
2.77

Look at this substance and give its reported amyloid nucleation score. `HGLLHQVSVMPGIPSMAFNI`
-0.016
